Biological target: Serine/threonine-protein kinase B-raf (Homo sapiens, UniProt P15056, V600E)
Sequence (P15056 2-766 V600E limits assumed): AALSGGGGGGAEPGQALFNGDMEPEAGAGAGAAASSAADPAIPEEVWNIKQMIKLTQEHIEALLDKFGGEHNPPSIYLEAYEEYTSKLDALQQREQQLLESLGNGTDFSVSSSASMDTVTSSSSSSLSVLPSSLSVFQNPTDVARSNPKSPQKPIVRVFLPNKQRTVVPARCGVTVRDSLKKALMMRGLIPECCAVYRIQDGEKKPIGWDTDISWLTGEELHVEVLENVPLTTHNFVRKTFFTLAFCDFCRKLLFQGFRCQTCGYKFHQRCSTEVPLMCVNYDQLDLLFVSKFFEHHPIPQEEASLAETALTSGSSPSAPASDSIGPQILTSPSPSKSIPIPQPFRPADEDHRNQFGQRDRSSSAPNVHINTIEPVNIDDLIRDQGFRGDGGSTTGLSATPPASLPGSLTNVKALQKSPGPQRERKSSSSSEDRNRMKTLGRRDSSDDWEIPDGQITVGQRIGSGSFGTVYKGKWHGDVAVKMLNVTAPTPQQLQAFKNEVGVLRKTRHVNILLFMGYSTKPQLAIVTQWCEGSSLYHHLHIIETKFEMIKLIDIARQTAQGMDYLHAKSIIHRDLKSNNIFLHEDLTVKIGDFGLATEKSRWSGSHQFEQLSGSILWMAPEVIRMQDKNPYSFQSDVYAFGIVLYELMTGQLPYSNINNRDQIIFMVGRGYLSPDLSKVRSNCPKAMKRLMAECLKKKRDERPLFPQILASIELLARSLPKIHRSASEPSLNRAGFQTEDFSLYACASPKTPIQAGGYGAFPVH
Test: Inhibition of B-Raf V600E mutant (unknown origin) using MEK1 as substrate measured after 2 hrs by ELISA
test-readout: IC50 (nM)

Please review the entries below; each comes with its answer.
{"columns": ["item-smiles", "test-readout", "observed-measurement"],
 "data": [
  ["CNC(=O)c1ccc(Sc2cccc(NC(=S)Nc3ccc(F)c(Cl)c3)c2)nc1", "IC50", 392],
  ["CNC(=O)c1ccc(Sc2cccc(NC(=S)Nc3cccc(C(F)(F)F)c3)c2)nc1", "IC50", 1270],
  ["CNC(=O)c1ccc(Sc2ccc(NC(=S)Nc3ccc(F)c(C(F)(F)F)c3)cc2)nc1", "IC50", 45]
]}

(I) CNC(=O)c1ccc(Sc2ccc(NC(=S)Nc3ccc(Cl)c(C(F)(F)F)c3)cc2)nc1
(II) CNC(=O)c1ccc(Sc2ccc(NC(=O)Nc3ccc(F)c(C(F)(F)F)c3)cc2)nc1
Q) Could you kindly indicate whether I or II has the higher IC50 value? Answer = label.
A) II

(P) CNC(=O)c1ccc(Sc2ccc(NC(=S)Nc3ccc(F)c(F)c3)cc2)nc1
(Q) CNC(=O)c1ccc(Sc2cccc(NC(=S)Nc3ccc(F)c(C(F)(F)F)c3)c2)nc1
Q) Between the entries labeled P and Q , whose measured IC50 is lower? Answer = label.
A) Q
